# target of assay: Leukotriene A-4 hydrolase (Homo sapiens, UniProt P09960)
# Sequence (P09960 whole entry): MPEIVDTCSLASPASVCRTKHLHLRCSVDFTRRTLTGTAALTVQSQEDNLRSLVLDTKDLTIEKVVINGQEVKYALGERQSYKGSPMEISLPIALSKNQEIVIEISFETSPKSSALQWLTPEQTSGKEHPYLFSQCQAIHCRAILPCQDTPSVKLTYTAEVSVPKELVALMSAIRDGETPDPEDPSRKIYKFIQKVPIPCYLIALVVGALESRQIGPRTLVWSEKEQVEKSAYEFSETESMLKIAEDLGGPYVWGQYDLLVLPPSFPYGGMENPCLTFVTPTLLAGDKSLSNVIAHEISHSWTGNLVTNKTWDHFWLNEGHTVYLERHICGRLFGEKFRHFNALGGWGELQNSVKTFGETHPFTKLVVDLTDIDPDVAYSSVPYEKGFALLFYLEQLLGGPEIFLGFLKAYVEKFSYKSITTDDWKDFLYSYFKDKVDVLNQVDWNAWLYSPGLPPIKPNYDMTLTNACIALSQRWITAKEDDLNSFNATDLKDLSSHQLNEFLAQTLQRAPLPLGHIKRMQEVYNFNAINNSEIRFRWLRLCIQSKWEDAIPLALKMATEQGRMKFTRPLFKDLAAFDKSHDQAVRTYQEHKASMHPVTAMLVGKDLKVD
# experimental details: Inhibition of LTA4 hydrolase in human whole blood assessed as inhibition of calcium ionophore A23187-induced LTB4 production after 0.5 hrs by ELISA
pIC50 reference
Here pIC50 is given on a logarithmic scale as minus log10 of the concentration in mol/L.

>>> measured_value("c1cc(Oc2ccc(OCCN3CCCC3)cc2)ccn1")
6.17
>>> measured_value("O=[N+]([O-])c1cccc(Oc2ccc(OCCN3CCCC3)cc2)c1")
5.85
>>> measured_value("O=[N+]([O-])c1ccc(Oc2ccc(OCCN3CCCC3)cc2)cc1")
6.16

Kindly review the next compound as well.
The reported pIC50 value, Leukotriene A-4 hydrolase (Homo sapiens, UniProt P09960), for Fc1ccc(Oc2ccc(OCCN3CCCC3)cc2)cc1 reads 6.00
